test: NCI Yeast Anticancer Drug Screen. Data for the bub3 strain (AID 167); settings: S. cerevisiae bub3 mutant strain, at 100.0 µM
About 79,000 compounds went through this panel and 15% of them were active in at least one assay; those are over-represented in the sample as a whole. Activity calls are given as the source filed them. Rule as the data show it: active = growth inhibition above about 70%; inactive = the rest.
Form entry, call: pick from yes (active), no (inactive)

Reference set, count: 2
compound | class
CCOC(=O)C(Br)C(Br)c1ccccc1Cl (stereo not drawn) | yes
O=C(O)c1cc2ccc(Cl)cc2c(O)c1C1=CCCCC1 | yes

Now consider the entry below.
*Q* // outcome(item) with item = COc1cc(C2SCC(=O)N2c2ccc(-c3ccc(-n4c(-c5ccccc5)nc5ccccc5c4=O)cc3)cc2)ccc1O (stereo not drawn)
*A* no
